These measurements were taken from patent US11485744B2.

ASSAY TEXT: Conversion of HPPs to parent drugs in human plasma (half life)
Type: in vitro ADME
PARTICULARS: human, plasma, pH 7.4
Protocol: HPPs of antimicrobials or antimicrobial-related compounds converted to the parent antimicrobials or antimicrobial-related compounds quickly in good yield in human plasma. A HPP of antimicrobial or antimicrobial-related compound (10 mg) was dissolved in 0.1 ml of 0.2M pH 7.4 phosphate buffer. 1 ml of human plasma, preheated to 37° C., was added into the mixture. […]
ATTRIBUTE MEASURED: half-life at 9.1 mg/mL (min)

[
  {
    "COMPOUND": "CCN(CC)CCOC(=O)C1=C(COC(N)=O)CSC2N1C(=O)C2(NC(=O)Cc1cccs1)OC.Cl (centres unmarked)",
    "UNIT OF MEASUREMENT": "min",
    "READING": 7
  },
  {
    "COMPOUND": "CCN(CC)CCOC(=O)C1=C(COC(C)=O)CSC2C(NC(=O)C(=NOC)c3csc(NC(C)=O)n3)C(=O)N12.Cl (centres unmarked)",
    "UNIT OF MEASUREMENT": "min",
    "READING": 10
  },
  {
    "COMPOUND": "CCN(CC)CCOC(=O)C1=CCSC2C(NC(=O)C(=NOC)c3csc(NC(C)=O)n3)C(=O)N12.Cl (centres unmarked) [ceftizoxime-DEE]",
    "UNIT OF MEASUREMENT": "min",
    "READING": 11
  },
  {
    "COMPOUND": "CCOC(=O)Cn1nnnc1SCC1=C(C(=O)OCCN(CC)CC)N2C(=O)C(NC(=O)Cc3ccccc3CNC(C)=O)C2SC1.Cl (centres unmarked)",
    "UNIT OF MEASUREMENT": "min",
    "READING": 9
  },
  {
    "COMPOUND": "CCN(CC)CCOC(=O)C1=C(CSc2nnnn2C)CSC2C(NC(=O)C(O)c3ccccc3)C(=O)N12.Cl (centres unmarked)",
    "UNIT OF MEASUREMENT": "min",
    "READING": 10
  },
  {
    "COMPOUND": "CCN(CC)CCOC(=O)C1=C(COC)CSC2C(NC(=O)/C(=N\\OC)c3csc(NC(C)=O)n3)C(=O)N12.Cl (centres unmarked)",
    "UNIT OF MEASUREMENT": "min",
    "READING": 8
  },
  {
    "COMPOUND": "CCN(CC)CCOC(=O)C1=C(Cl)CSC2C(NC(=O)C(NC(C)=O)c3ccccc3)C(=O)N12.Cl (centres unmarked)",
    "UNIT OF MEASUREMENT": "min",
    "READING": 8
  },
  {
    "COMPOUND": "CCN(CC)CCOC(=O)C1=C(CSc2nnnn2C)CSC2C(NC(=O)C(NC(=O)N3CCN(CC)C(=O)C3=O)c3ccc(OC(C)=O)cc3)C(=O)N12.Cl (centres unmarked)",
    "UNIT OF MEASUREMENT": "min",
    "READING": 12
  }
]

----------
ASSAY TEXT: Conversion of HPPs to parent drugs in human plasma (half life)
Format: in vitro ADME
PARTICULARS: human, plasma
ATTRIBUTE MEASURED: Half life of HPPs in plasma (min)

[
  {
    "COMPOUND": "CCN(CC)CCOC(=O)C1N2C(=O)C(NC(=O)COc3ccccc3)C2SC1(C)C.Cl (centres unmarked)",
    "ATTRIBUTE MEASURED": "Half life of HPPs in plasma",
    "READING": 8
  },
  {
    "COMPOUND": "CCN(CC)CCOC(=O)C1N2C(=O)C(NC(=O)c3c(-c4c(Cl)cccc4Cl)noc3C)C2SC1(C)C.Cl (centres unmarked)",
    "ATTRIBUTE MEASURED": "Half life of HPPs in plasma",
    "READING": 12
  },
  {
    "COMPOUND": "CCN(CC)CCOC(=O)C1N2C(=O)C(NC(=O)[C@H](NC(=O)N3CCNC3=O)c3ccccc3)C2SC1(C)C.Cl (some centres unmarked)",
    "ATTRIBUTE MEASURED": "Half life of HPPs in plasma",
    "READING": 9
  },
  {
    "COMPOUND": "CCN(CC)CCOC(=O)C1N2C(=O)C(NC(=O)c3c(-c4ccccc4Cl)noc3C)C2SC1(C)C.Cl (centres unmarked)",
    "ATTRIBUTE MEASURED": "Half life of HPPs in plasma",
    "READING": 8
  },
  {
    "COMPOUND": "C=CCSCC(=O)NC1C(=O)N2C1SC(C)(C)C2C(=O)OCCN(CC)CC.Cl (centres unmarked)",
    "ATTRIBUTE MEASURED": "Half life of HPPs in plasma",
    "READING": 8
  },
  {
    "COMPOUND": "CCN(CC)CCOC(=O)C1N2C(=O)[C@@H](NC(=O)C(NC(=O)N3CCN(S(C)(=O)=O)C3=O)c3ccccc3)C2SC1(C)C.Cl (some centres unmarked)",
    "ATTRIBUTE MEASURED": "Half life of HPPs in plasma",
    "READING": 13
  },
  {
    "COMPOUND": "CCN(CC)CCOC(=O)C1N2C(=O)C(NC(=O)[C@H](NC(C)=O)c3ccccc3)C2SC1(C)C.Cl (some centres unmarked)",
    "ATTRIBUTE MEASURED": "Half life of HPPs in plasma",
    "READING": 10
  },
  {
    "COMPOUND": "CCN(CC)CCOC(=O)C1N2C(=O)C(NC(=O)C3C(c4ccccc4)=NOC3C)C2SC1(C)C.Cl (centres unmarked)",
    "ATTRIBUTE MEASURED": "Half life of HPPs in plasma",
    "READING": 12
  }
]
